Source of measurements: ChEMBL document CHEMBL1147845

- System: Candida tropicalis
- testName: Antimicrobial activity against Candida tropicalis IP 2031 by disk diffusion method; also: test concentration or dose not given here
- Assay type: functional
Entries and their measured inhibition zone (IZ) follow.

{"cpdSmiles": "O=C(CS(=O)(=O)c1ccc(F)cc1)c1ccc([N+](=O)[O-])cc1", "inhibition zone (IZ) [mm]": 19}
{"cpdSmiles": "O=C(CS(=O)(=O)c1cccc2ccccc12)c1ccc([N+](=O)[O-])cc1", "inhibition zone (IZ) [mm]": 12}
{"cpdSmiles": "Cc1ccc(S(=O)(=O)CC(=O)c2ccc([N+](=O)[O-])cc2)cc1", "inhibition zone (IZ) [mm]": 22}
{"cpdSmiles": "O=C(CS(=O)(=O)c1ccc(Cl)cc1)c1ccc([N+](=O)[O-])cc1", "inhibition zone (IZ) [mm]": 19}
{"cpdSmiles": "O=C(CS(=O)(=O)c1ccc([N+](=O)[O-])cc1)c1ccc([N+](=O)[O-])cc1", "inhibition zone (IZ) [mm]": 12}
